Where do the numbers come from? From the nanobody polyreactivity screen of Harvey et al. (2022).

# MEASUREMENT PROTOCOL: yeast display, Sf9 membrane polyspecificity reagent, FACS + sequencing; frameworks hold sequencing errors

SEQUENCE STRING	polyreactivity (PSR sort gate)
QVQLVESGGGLVQAGGSLRLSCAASGRTFYRYAMGWYRQAPGKERELVAAISSGGSTNYADSVKGRFTISRDNAKNTVYLQMNSLKPEDTAVYYCAAETRLHRQDYDYWGQGTQVTVSS	low polyreactivity
QVQLVESGGGVVQAGGSLRLSCAASGRIFRNNAMGWYRQAPGKERVLVAGIRGGGSTYYADSVKGRFTISRDNAKNTVYLQMNSLKPEDTAVYYCNAEASRYVGYGAWQTERDYWGQGTQVTVSS	low polyreactivity
QVQLVESGGGLVQAGGSLRLSCAASGSIFPHYAMGWSRQAPGKERELVSAISSGGRTYYADSVKGRFTISRDNAKNTVYLQMNSLKPEDTAVYYCAARRIARKGYGYWGQGTQVTVSS	high polyreactivity
QVQLGESGGGLVQAGGSLRLSCAASGYIFAYYAMGWSRQAPGKERELVAAISRSGGSTYYADSVKGRFTISRDNAKNTVYLEMISLKPEDTAVSYCAARSTGNYEREYNYWGQGTQVTVSS	high polyreactivity
QVQLVESAGGLVQAGGSLSIICAASGFTFYGYTMGWYRQAPGKERELVAAITSDGDTNYADSVKGRFTISRDNAKNTVYLQMISLKPVDTAVYYCNADPGYYFYWWPGDYWGQGTQLTVSS	low polyreactivity

###

# MEASUREMENT PROTOCOL: yeast display, Sf9 membrane polyspecificity reagent, FACS + sequencing; frameworks hold sequencing errors

SEQUENCE STRING	polyreactivity (PSR sort gate)
QVQLVESGGGLVQAGGSLRLSCAASGGIFGSYAMGWYRQAPGKERELVAAITSGGRTTYADSVKGRFTISRDNAKNTVYLQMNSLKPEDTAVYYCNAGRVFGNYFFRVYYYWGQGTQVTVSS	high polyreactivity
QVQLVESGGGLVQAGGSLRLSCDASGFIFGYYAMGWYRHAPGKERELVAAISRGDTSTYYADSVKGRFTISRDNAKNTVYLQMYSLKPEDTAVYYCAADWTGYGYYYWGQGTQVTVSS	low polyreactivity
QVQHVESGGGLVQAGGSLRLTCAATGSTFRDNAMRWYRQAPGKERELVAAIRIGGDGTYYADSVKGRFTISRDNAKNTVYLQMNSLKPEDTAVYYCAVDTEKGWRMYYWGQGTQVTVSS	low polyreactivity
QVQHVESGGGLVQAGGSLRLSCASSGSTFWAYAMGWYRLAPGKERELVATITGSVGGTYYADSVKGRFTISRDNAKNTVYLQMNSLKPEDTAVYYCATDAYVKGVYEISEDRVDYWGQGTQVTVSS	low polyreactivity
QVQLVESGGGLVQAGGSLRLSCAPSGRTFGRYAMGWYRQAPGKERELVAAITRSGGSTYYADSVKGRFTISRDIAKNTVYLQMNSLKPEDTAVYYCNAGWRLGRGYWGQGTEVTVSS	high polyreactivity
QVQLVESGGGLVQAGGSLRLSCAASGFIFGSYTMGWYRQAPGKERELVAAISSSVGRTYYADSVKGRFTISRDNAKNTVYLQMNSLKPEDTAVYYCAARRHGRVDYSQGSRESYYWGQGTQVTVSS	high polyreactivity
QVQLVESGGGLVQAGGSLRLSCAASGSTFIGHAMGWYRQAPGIERELVATITSGDSTYADSVKGRFTISRDNAKNTVYLQMNSLKPEDTAVYYCNADPWDIGSSFELDYWGQGTQLTVSS	low polyreactivity
QVQLVESGGGLVQAGGSLRLSCAASGFIFVPYAMGWDRQAPGNERELVAAITWSGAATYYADSVQGRFTISRDNAKNTVYLQLNSLKPEDTAVYYCAAENWLPQTGGYYWYDSWGQGTQVTVSS	high polyreactivity
QVQLVESGGGLVQAGGSLRLSCAASGRIFVYYAMGWYRQAPGKERELVATISSGGSTYYADSVKGRFTISRDNAKNTVYLQMNSLKPEDTAVYYCAADNVNRYLAYYYKGDYWGQGTQVTVSS	low polyreactivity
QVHLVESGGGLVQAGCSLRLSCAASGFTFYDYAMGWYRQAPGKERELVAGISRGDSTYYADSVKGRFTISRDNAKNTVYLQKNSLKPEDTSVYYCAADARSYDALDYSDLLYDYWGHGTQVTVSS	low polyreactivity
QVQLVESGGGLVQAGGSLRLSCAASGRIIYKNAMGWYRQAPGKETELVAAINSSGGSTYYGDSVKGRFTISRDNAKNTVYLQMNCLKPEDSAVYYCAAYDYGRFGKLNYWGQGSQVTVSS	low polyreactivity
QVQLVESGGGLVQAGGSLRLSCAASGFIFVPNAMGWYRQAPGKERELVAAITWSGSSTYYADSVKGRFTISRDNAKNTVYLQINSLKPEDTAVYYCAADYPVWDEFYDSYEYWGQGTQVTVSS	high polyreactivity
QVQLVESGGGLDQAGGSLRLSCADSGSTFGLYAMGWYRQAPGKETELVAVISWRGGSTYYADSVKGRFTISRDNAKITVYFQMNSLKPEDTAVYYCAAYCLYPYVRYDYWGLGTQVTVSS	low polyreactivity
QVQLVESGGGLVQAGGSLRLSCAATGRTFYVYAMGWYRQAPGKERELVADITWSGGSTYADSVKGRFTISRDNAKNTVYLQMNSLKPEDTAVYYCAAEWQTWYGVEYDYWGQGTQVTVSS	high polyreactivity
QVQLVESGGGLVQAGGSLRLSCAPSRFIFFFYAMGWYRQAPGKERELVAAISDGVSTYYADSVKGRFTISRDNAKNTVYLQKNSLKPDDTAVYYCAVSRGDDPEFDYWGKGTQVTVSS	low polyreactivity
QVQLVESGGGLVQAGGSLRLSCAASGSNFYFYAMGWYIQAPGKERELVADITWSGGSTYYADSVKGRFTISRDNAKNTVYLQMNSLKREDTAVYYCATDSWFGLEYWGQGTQVTVSS	high polyreactivity
QVQLVESGGGLVQEGGSLRLSCAASGRTFYTNAMGWYRPAPGKERELVAVISRGGTTFYADSVKGRFTISRDNAKNTVYLQMNSLKPEDTAVYYCAKQRPSGDSSSQMGSWGQGTQVTVSS	low polyreactivity
QVQIVESGGGLVHAGGSLRLSCAASGSIYKRYAMGWYRQAPGKERELVAAIRWSGGSTYYADSVKGRFTISRDNAMNTVFLQMNSLKPEDTAVYYCARDGWGRLYGMGYWGQGTQVTVSS	low polyreactivity
QVQLVESGGGLVQAGGSLRLSCAASGRTIRYYVMGWYRQAPGKERELVAAISSGGRTNYADSVKGRFTISRDNAKNTVYLQMNSLKPEDTAVYYCAADLWYYWTATRAFDYWGQGTQVTVSS	high polyreactivity
QVQLVESGGGLVQAGGSLRLSCAPSGFIFARNAMGWYRQAPGKERELVAVISTRGRTYYADSVKGRFTISRDNAKNTVYLQMKRLKPEDTAVYYCNADKVIGYDYWGQGTQVTVSS	high polyreactivity
QVQLVESGGGLVQAGGSLRLSCAASGGIFAHYVMGWYRQAPGKERELVAAISASGGSTYYADSVKGRFTISRDNAKNTVYLQMNSLKPEDTAVYYCAAYYLAWYAYRYKTVGSAMDHWGQGTQVTVSS	low polyreactivity
